The entries below come with measured % inhibition of uptake of substrate by unlabelled competitor values attached.
biological target: BetX with CbcWV (Pseudomonas aeruginosa); assay: Competitive uptake, MKH13 expressing cbcWV and betX; format: cell-based; details: pNcbcWV, pT-PA3236, SBP BetX, [^14C]betaine 10 μM, competitor 1 mM
Note: unit % is implicit; provide only the numeric part.

1) CN(C)CC(=O)O [DM, dimethylglycine] ... 56
2) C[N+](C)(C)CC(=O)O [Betaine, glycine betaine] ... 94
3) CNCC(=O)O [MM, monomethylglycine] ... −13
4) C[N+](C)(C)CCO [Choline, choline] ... −8

# context switch: different compound, same % inhibition of uptake of substrate by unlabelled competitor
Problem: Tell me the measured % inhibition of uptake of substrate by unlabelled competitor of C[N+](C)(C)C[C@H](O)CC(=O)[O-] [Carnitine, L-carnitine] , please.
Solution: 3

###

target: UniProtKB Q92N37; experiment: Competitive uptake, MKH13 expressing choXWV; assay type: cell-based; conditions: pNchoXWV, SBP ChoX, [^14C]choline 10 μM, competitor 1 mM
Sequence (Q92N37 28-318): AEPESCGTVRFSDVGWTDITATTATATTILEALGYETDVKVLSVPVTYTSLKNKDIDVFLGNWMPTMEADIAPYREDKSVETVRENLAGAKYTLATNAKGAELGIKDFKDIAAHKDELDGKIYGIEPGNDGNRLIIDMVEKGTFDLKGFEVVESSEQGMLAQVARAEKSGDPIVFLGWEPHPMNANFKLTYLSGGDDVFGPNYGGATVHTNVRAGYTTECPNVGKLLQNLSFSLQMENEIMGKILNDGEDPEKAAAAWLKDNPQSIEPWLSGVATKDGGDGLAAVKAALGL
Sequence (Q92N36 1-281 partner): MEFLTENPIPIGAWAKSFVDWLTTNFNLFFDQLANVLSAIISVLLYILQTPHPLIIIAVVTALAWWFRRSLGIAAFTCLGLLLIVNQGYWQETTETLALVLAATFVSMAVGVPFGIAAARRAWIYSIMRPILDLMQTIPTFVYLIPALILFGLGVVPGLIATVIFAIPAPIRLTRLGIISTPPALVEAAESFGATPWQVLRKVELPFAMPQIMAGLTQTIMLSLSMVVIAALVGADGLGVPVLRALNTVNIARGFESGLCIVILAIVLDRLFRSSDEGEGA
Sequence (Q92N35 1-349 partner): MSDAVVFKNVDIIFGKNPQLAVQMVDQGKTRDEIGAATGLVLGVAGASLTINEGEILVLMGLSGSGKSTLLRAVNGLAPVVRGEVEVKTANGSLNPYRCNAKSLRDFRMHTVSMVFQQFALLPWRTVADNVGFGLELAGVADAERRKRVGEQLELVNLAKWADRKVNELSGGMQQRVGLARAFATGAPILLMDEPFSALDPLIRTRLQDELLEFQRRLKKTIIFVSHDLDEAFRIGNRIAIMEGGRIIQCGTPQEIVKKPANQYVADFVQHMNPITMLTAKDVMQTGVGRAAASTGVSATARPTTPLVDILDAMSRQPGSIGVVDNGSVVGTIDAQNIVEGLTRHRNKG
The entries below come with measured % inhibition of uptake of substrate by unlabelled competitor values attached.

Known results for compounds:
1) C[N+](C)(C)CCOP(=O)(O)O ... 5%
2) C[N+](C)(C)CCO ... 98%
3) C[N+](C)(C)C[C@H](O)CC(=O)[O-] ... 41%
4) CNCC(=O)O ... −4%
5) C[N+](C)(C)CC(=O)O ... 3%

# context switch: different compound, same % inhibition of uptake of substrate by unlabelled competitor
Problem: Tell me the measured % inhibition of uptake of substrate by unlabelled competitor of CC(=O)OCC[N+](C)(C)C , please.
Solution: 88%

###

The entries below come with measured % inhibition of uptake of substrate by unlabelled competitor values attached.
target: CbcX with CbcWV (Pseudomonas aeruginosa); assay: Competitive uptake, MKH13 expressing cbcXWV; format: cell-based; settings: MKH13; pNcbcXWV; SBP CbcX; [^14C]betaine 10 μM; competitor 1 mM
Note: unit % is implicit; provide only the numeric part.

1) C[N+](C)(C)CC(=O)O ... 87

Problem: Tell me the measured % inhibition of uptake of substrate by unlabelled competitor of CN(C)CC(=O)O , please.
Solution: −5

Problem: Tell me the measured % inhibition of uptake of substrate by unlabelled competitor of C[N+](C)(C)CCO , please.
Solution: 99

Problem: Tell me the measured % inhibition of uptake of substrate by unlabelled competitor of C[N+](C)(C)C[C@H](O)CC(=O)[O-] , please.
Solution: 3

###

molecular target: CbcX with CbcWV (Pseudomonas aeruginosa, UniProt Q9HTI6); test: Competitive uptake, MKH13 expressing cbcXWV; assay type: cell-based; settings: MKH13; pNcbcXWV; SBP CbcX; [^14C]choline 10 μM; competitor 1 mM
reported-property: % inhibition of uptake of substrate by unlabelled competitor (%)
Note: unit % is implicit; provide only the numeric part.

1) C[N+](C)(C)CCO ... 92
2) C[N+](C)(C)C[C@H](O)CC(=O)[O-] ... 6

# context switch: different molecule, same % inhibition of uptake of substrate by unlabelled competitor
Problem: Tell me the measured % inhibition of uptake of substrate by unlabelled competitor of C[N+](C)(C)CCOP(=O)(O)O , please.
Solution: 1

Cited source: paper PMC5503199
